// provenance: patent US7202265B2

- assay target: EGFR (Homo sapiens, UniProt P00533)
- Construct: Add 7 ug A431 cell lysate per well (EGFR source); endogenous in cells; host or cells: A431 cells (lysate)
- Sequence (P00533 25-1210): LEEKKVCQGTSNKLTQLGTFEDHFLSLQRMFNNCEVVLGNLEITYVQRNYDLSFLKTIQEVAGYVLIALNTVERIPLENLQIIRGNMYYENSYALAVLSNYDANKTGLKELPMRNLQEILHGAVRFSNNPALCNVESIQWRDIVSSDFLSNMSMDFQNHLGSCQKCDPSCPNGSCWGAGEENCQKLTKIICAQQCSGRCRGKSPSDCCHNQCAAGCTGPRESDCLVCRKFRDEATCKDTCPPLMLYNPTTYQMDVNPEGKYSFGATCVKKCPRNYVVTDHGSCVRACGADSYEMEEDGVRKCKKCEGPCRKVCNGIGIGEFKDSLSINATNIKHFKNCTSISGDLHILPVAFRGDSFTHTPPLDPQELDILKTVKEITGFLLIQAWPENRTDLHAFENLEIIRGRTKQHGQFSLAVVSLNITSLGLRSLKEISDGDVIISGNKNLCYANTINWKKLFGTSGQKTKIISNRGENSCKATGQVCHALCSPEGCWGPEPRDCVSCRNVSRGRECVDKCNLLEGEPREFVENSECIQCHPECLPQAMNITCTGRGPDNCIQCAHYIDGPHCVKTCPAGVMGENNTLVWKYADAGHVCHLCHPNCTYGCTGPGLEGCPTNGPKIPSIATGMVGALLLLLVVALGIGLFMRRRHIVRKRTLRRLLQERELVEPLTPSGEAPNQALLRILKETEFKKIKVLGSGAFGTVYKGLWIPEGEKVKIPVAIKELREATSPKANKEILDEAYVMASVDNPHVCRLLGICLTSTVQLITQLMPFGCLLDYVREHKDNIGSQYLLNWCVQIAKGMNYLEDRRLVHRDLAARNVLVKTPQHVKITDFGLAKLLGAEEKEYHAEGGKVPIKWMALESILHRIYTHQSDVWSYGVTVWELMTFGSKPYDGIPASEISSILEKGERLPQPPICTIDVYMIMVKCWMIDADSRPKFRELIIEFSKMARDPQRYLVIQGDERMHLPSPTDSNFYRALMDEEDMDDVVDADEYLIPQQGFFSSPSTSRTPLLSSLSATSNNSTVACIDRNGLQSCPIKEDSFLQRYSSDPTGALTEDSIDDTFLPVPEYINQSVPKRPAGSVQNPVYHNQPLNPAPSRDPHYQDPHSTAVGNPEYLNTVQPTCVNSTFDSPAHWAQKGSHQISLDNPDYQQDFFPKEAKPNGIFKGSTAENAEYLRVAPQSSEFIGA
- assay procedure: EGFR ELISA assay (in vitro kinase activity, A431 cell lysate)
- Format: biochemical
- Parameters: concentration or dose not given beside the values
Respond with True for Biochem EGFR % Inhibition values of 30% and above, False for values below.

These recorded examples may help you get a feel for the data.
1) Cn1c(C=C2C(=O)Nc3ccc(I)cc32)nc2ccccc21 ... True
2) Cc1ccc(C=C2C(=O)Nc3c(Br)cc(Br)cc32)o1 ... False
3) CNS(=O)(=O)c1ccc2c(c1)C(=Cc1c(OC)ccc3ccccc13)C(=O)N2 ... False

QUERY: Would you say `O=C1Nc2ccc(I)cc2C1=Cc1cc2c3c(c1O)CCCN3CCC2` shows Biochem EGFR % Inhibition at minimum 30%?
RESULT: False

QUERY: Would you say `O=C1Nc2ccc(I)cc2C1=Cc1ccc(Cl)s1` shows Biochem EGFR % Inhibition at minimum 30%?
RESULT: True

* * *

- assay target: FLK-1 receptor (Mus musculus, UniProt P35918)
- Construct: expressed in transfected cells; host or cells: NIH3T3 C7#3 (FLK-1/NIH3T3)
- Sequence (P35918 20-1345): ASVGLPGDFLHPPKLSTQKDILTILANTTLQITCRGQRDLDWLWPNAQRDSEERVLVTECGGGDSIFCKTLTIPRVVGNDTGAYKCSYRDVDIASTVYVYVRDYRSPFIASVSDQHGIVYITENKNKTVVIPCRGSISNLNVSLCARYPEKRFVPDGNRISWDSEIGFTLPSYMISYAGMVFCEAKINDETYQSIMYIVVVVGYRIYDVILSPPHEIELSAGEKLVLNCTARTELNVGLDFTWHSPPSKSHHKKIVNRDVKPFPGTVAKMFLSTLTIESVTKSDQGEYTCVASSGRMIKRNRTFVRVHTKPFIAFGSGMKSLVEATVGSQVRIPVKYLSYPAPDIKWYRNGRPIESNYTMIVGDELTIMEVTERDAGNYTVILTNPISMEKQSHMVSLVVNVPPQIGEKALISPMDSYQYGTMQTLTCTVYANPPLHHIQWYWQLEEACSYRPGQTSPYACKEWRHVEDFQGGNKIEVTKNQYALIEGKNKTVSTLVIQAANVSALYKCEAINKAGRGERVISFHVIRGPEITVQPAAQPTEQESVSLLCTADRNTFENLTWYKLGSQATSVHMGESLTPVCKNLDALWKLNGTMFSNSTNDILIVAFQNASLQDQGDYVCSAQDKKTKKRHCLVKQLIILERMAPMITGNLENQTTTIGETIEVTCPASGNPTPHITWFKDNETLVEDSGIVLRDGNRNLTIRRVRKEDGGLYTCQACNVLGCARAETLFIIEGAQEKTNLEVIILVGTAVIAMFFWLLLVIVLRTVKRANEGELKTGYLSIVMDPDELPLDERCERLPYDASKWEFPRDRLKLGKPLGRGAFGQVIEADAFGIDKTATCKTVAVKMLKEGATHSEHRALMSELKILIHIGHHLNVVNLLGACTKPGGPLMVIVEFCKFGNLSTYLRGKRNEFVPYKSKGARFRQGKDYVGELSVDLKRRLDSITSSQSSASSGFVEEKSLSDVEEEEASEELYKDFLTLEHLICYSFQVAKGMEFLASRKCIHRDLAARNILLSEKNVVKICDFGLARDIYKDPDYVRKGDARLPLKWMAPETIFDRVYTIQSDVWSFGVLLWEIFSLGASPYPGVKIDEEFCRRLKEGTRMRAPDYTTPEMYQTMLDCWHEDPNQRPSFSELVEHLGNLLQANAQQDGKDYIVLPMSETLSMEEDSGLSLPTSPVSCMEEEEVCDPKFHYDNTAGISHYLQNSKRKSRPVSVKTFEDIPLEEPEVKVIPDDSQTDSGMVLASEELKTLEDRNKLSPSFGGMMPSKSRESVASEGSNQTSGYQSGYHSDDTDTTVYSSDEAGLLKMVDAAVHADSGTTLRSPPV
- assay procedure: FLK-1 ELISA (catalytic activity of the FLK-1 receptor in FLK-1/NIH3T3 cells)
- Type: cell-based
- Set-up: concentration or dose not given beside the values
reported endpoint: Flk Kinase % Inhibition (%)
Supply the numeric figure in %, leaving out any unit text.

For orientation, consider the following solved cases.
1. CNS(=O)(=O)c1ccc2c(c1)C(=Cc1ccc(F)cc1C(F)(F)F)C(=O)N2 [10719/D11] ... −8.7
2. Cc1ccc(C=C2C(=O)Nc3ccc(I)cc32)o1 [10725/B04] ... 1.1
3. CCOC(=O)CCc1c(C(=O)OCC)[nH]c(C=C2C(=O)Nc3ccc(I)cc32)c1CC(=O)OCC [10718/B05] ... 11.5

// Flk Kinase % Inhibition lookup, compound = Cc1cc(C=C2C(=O)Nc3ccc(I)cc32)cc(C)c1O [10722/B07] , result: 6.6

// Flk Kinase % Inhibition lookup, compound = COc1cccc(O)c1C=C1C(=O)Nc2ccc(S(=O)(=O)N3CCOCC3)cc21 [10717/F10] , result: −4.4

// Flk Kinase % Inhibition lookup, compound = O=C1Nc2ccc(I)cc2C1=Cc1cc([N+](=O)[O-])cc(CCl)c1O [10721/B06] , result: 3.4

// Flk Kinase % Inhibition lookup, compound = O=C1Nc2ccc(CCCl)cc2C1=Cc1cccc(Br)c1 [10723/G10] , result: 3.5

// Flk Kinase % Inhibition lookup, compound = O=C1Nc2ccc(I)cc2C1=Cc1cc2c3c(c1O)CCCN3CCC2 [10724/B05] , result: −2.2

// Flk Kinase % Inhibition lookup, compound = COc1c(I)cc(C=C2C(=O)Nc3ccc(S(=O)(=O)N4CCOCC4)cc32)cc1C(C)(C)C [10732/F11] , result: 14.1

* * *

- assay target: FLK-1 receptor (Mus musculus, UniProt P35918)
- Construct: expressed in transfected cells; host or cells: NIH3T3 C7#3 (FLK-1/NIH3T3)
- assay procedure: FLK-1 ELISA (catalytic activity of the FLK-1 receptor in FLK-1/NIH3T3 cells)
- Type: cell-based
- particulars: Table 2; read-out: FLK Kinase IC50
Criterion: IC50 strictly less than 10 µM. Met: Yes. Not met: No.

1. Cc1cccc2c1/C(=C/c1cn(C)c3ccccc13)C(=O)N2 ... Yes

QUERY: Quick check: does `Cn1cc(/C=C2\C(=O)Nc3ccc(F)cc32)c2ccccc21` have IC50 under 10 µM?
RESULT: No

QUERY: Quick check: does `COc1ccc2[nH]cc(/C=C3\C(=O)Nc4ccccc43)c2c1` have IC50 under 10 µM?
RESULT: No

QUERY: Quick check: does `Cn1cc(/C=C2\C(=O)Nc3ccccc32)c2ccccc21` have IC50 under 10 µM?
RESULT: Yes

QUERY: Quick check: does `Cn1cc(/C=C2\C(=O)Nc3ccc(N)cc32)c2ccccc21` have IC50 under 10 µM?
RESULT: Yes
